B1: RHOBTB2 (parent)
chain: NQEITKAFHVRRTNRVKECLAKGT

Variants of: B1
test.name: protein stability index of a GFP-peptide fusion (GPS, HEK-293T) (PSI 1-6); higher = more stable;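 further: lentivirally expressed fusions sorted by FACS into six bins by GFP to DsRed ratio, PSI derived from sequencing read proportions per bin multiplied by bin number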
settings: c terminus: a fixed tail appended
param class (str): category from protein stability index; see ranges group A: < 3; group B: ≥ 3 and < 4; group C: ≥ 4

[ask] Record NQEITKAFHVRRTNRVKECNAKGT [L20N] — which class?
[reply] group B

Others:
[ask] Record NQEITKAFGVRRTNRVKECLAKGT [H9G] — which class?
[reply] group C

[ask] Record NQEITKAFFVRRTNRVKECLAKGT [H9F] — which class?
[reply] group A

[ask] Record NIEITKAFHVRRTNRVKECLAKGT [Q2I] — which class?
[reply] group A

[ask] Record NQEITKAFHVRRTNRFKECLAKGT [V16F] — which class?
[reply] group A

[ask] Record NQEIDKAFHVRRTNRVKECLAKGT [T5D] — which class?
[reply] group B

Values from the supplement of paper PMC10567573
